target: M5; assay: ELISA on coated antigen, column M5
reportedEndpoint: absorbance at 490 nm
Quick one: just the number, no unit, thanks!

Answered cases to consult:
PDL1-30B1 (antibody, V domains shown, Only FR/CDR pieces are tied to the clone) VH: QVQLVESGGGVVQPGRSLRLSCAASGFTFSSYAMHWVRQGPGKGLEWVAVISYDGSNEFYADSVKGRFTISRDNSKNTLYLQMNSLRAEDTAVYYCARGDYNGVYMDVWGQGTTVTVSS VL: DIVMTQTPLSLSVTPGQPASISCKSSQSLLHSDGKTYLYWYLQKPGQSPQLLIYEVSKRFSGVPDRFSGSGSGTDFTLKIGRVEAEDVGVYYCMQGLHLPYTFGQGTKLEIK
2.6
PDL1-16E12 (antibody, V domains shown, Only FR/CDR pieces are tied to the clone; also called parent antibody) VH: QMQLVQSGAEVKKPGSSVKVSCKASGGTFSSYAISWVRQAPGQGLEWMGRIIPILGIANYAQKFQGRVTITADKSTSTAYMELSSLRSEDTAVYYCAKPRDGYNLVAFDIWGQGTMVTVSS VL: QLVLTQPPSVSGAPGQTVTISCTGSSSNIGAGYDVHWYQQLPGTAPKLLIYGNNNRPSGVPDRFSGSKSGALASLAITGLQAEDGADYHCQSYDNSLSAHAVFGTGTKVTVL
2.4

// absorbance at 490 nm lookup, key: PDL1-11A7 (antibody, V domains shown, Only FR/CDR pieces are tied to the clone) VH: QVQLVQSGAEVKKPGASVKVSCKVSGYTLTELSMHWVRQAPGKGLEWMGGFDPEDGETIYAQKFQGRVTMTEDTSTDTAYMELSSLRSEDTAVYYCARDPWGGYYGMDVWGQGTTVTVSS VL: DIQMTQSPSSVSASVGDRVTINCRASQGIRTWLAWYQQKPGKAPKLLIYAASNLQSGVPSRFSGSGSGTDFTLTIASLQPEDFATYYCQQANSFPLTFGGGTKVEIK 2.5
